# study target: L. lactis MG1363 BcaP (CtrA), branched-chain amino acid permease (Lactococcus lactis subsp. cremoris)
# Sequence (A2RHI9 whole entry): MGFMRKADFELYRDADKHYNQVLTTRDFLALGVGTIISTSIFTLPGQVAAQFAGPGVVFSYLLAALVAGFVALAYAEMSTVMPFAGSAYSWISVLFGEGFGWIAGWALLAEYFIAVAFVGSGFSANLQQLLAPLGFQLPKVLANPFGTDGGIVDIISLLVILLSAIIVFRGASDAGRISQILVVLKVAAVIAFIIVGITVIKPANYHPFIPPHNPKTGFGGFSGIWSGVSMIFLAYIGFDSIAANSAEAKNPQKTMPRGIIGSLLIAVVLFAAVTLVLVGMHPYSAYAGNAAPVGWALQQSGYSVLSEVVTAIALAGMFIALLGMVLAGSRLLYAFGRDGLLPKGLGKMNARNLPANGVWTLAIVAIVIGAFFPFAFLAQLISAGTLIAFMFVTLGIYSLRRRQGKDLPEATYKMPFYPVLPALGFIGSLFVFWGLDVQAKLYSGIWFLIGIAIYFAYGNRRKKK
# method summary: Competition experiment: inhibition of L-[14C]isoleucine uptake by unlabeled L-amino acids in whole cells overproducing BcaP
# Format: cell-based
# measurement conditions: 10-fold excess of unlabeled L-amino acid; 250 µM unlabeled L-isoleucine (control); lactococcal cells overproducing BcaP; uptake after 1 min at 30°C; means of three measurements
measured quantity: inhibition of isoleucine transport by BcaP (reduction of L-[14C]isoleucine uptake) (%)
Express it in %; write the number only.

Query block: Could you share which inhibition of isoleucine transport by BcaP (reduction of L-[14C]isoleucine uptake) value was measured for CC(C)[C@H](N)C(=O)O ?
Result block: 64

Query block: Next molecule: CSCC[C@H](N)C(=O)O
Result block: 23
